assay: Oral bioavailability in rat; assay type: ADME, organism-based; details: in vivo
endpointName: bioavailability (%)
Use % as the unit, but write only the number.

What measured bioavailability goes with `NC/C=C(/F)COc1ccc(C(=O)NC2CCCCC2)cc1` ?
62

* * *

# pIC50 annotations
Target: Amine oxidase [flavin-containing] B (Homo sapiens, UniProt P27338)
Sequence (P27338 whole entry): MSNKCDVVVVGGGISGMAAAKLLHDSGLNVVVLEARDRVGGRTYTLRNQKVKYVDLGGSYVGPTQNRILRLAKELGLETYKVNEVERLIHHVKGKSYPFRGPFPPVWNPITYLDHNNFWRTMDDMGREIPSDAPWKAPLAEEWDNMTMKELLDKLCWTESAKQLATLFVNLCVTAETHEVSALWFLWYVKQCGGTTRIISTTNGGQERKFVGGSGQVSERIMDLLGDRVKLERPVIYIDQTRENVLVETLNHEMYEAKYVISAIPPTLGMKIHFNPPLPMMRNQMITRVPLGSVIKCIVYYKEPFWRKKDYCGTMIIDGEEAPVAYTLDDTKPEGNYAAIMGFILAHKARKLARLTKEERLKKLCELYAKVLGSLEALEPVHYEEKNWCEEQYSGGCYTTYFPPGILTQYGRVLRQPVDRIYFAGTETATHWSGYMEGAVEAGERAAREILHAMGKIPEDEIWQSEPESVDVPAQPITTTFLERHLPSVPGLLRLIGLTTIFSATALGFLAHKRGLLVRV
Assay: Inhibition of human recombinant MAO-B assessed as H2O2 production by Resorufin/Amplex Red assay
Formally, pIC50 is defined as -log10 of the concentration c, with c in mol/L.

{"molecule": "NC/C=C(/F)COc1ccc(C(=O)NC2CCCC2)cc1", "pIC50": 5.79}

What measured pIC50 goes with `CC(C)(C)c1ccc(OC/C(F)=C\CN)cc1` ?
5.19

What measured pIC50 goes with `NC/C=C(/F)COc1ccc(C(=O)NCc2ccccc2)cc1` ?
6.21

What measured pIC50 goes with `NC/C=C(/F)COc1cccc(Cl)c1` ?
7.52

What measured pIC50 goes with `NC/C=C(/F)COc1ccc([N+](=O)[O-])cc1` ?
8.00

What measured pIC50 goes with `COc1ccc(OC/C(F)=C\CN)cc1` ?
6.51

What measured pIC50 goes with `C[C@@H](NC(=O)c1ccc(OC/C(F)=C\CN)cc1)c1ccccc1` ?
5.79

What measured pIC50 goes with `C[C@H](NC(=O)c1ccc(OC/C(F)=C\CN)cc1)c1ccccc1` ?
5.19

What measured pIC50 goes with NC/C(=C/F)CCc1ccc(F)cc1 [MOFEGILINE] ?
8.00

What measured pIC50 goes with `NC/C=C(/F)COc1ccc(C(F)(F)F)cc1` ?
6.89

What measured pIC50 goes with `NC/C=C(/F)COc1ccc(Oc2ccccc2)cc1` ?
6.35

What measured pIC50 goes with `NC/C=C(/F)COc1ccc(F)c(F)c1` ?
7.05

What measured pIC50 goes with `NC/C=C(/F)COc1ccccc1` ?
6.74

What measured pIC50 goes with `CN(Cc1ccccc1)C(=O)c1ccc(OC/C(F)=C\CN)cc1` ?
5.66

What measured pIC50 goes with `NC/C=C(/F)COc1cccc(C(F)(F)F)c1` ?
7.52

What measured pIC50 goes with `NC/C=C(/F)COc1ccc(OC(F)(F)F)cc1` ?
7.15

What measured pIC50 goes with `CSc1ccc(OC/C(F)=C\CN)cc1` ?
6.80

What measured pIC50 goes with CC(NC(=O)c1ccc(OC/C(F)=C\CN)cc1)c1ccccc1 (racemic) ?
5.53

What measured pIC50 goes with `NC/C=C(/F)COc1ccc(C(=O)NC2CCCCC2)cc1` ?
5.95

What measured pIC50 goes with `CN(C)C(=O)c1ccc(OC/C(F)=C\CN)cc1` ?
4.72

What measured pIC50 goes with `NC/C=C(/F)COc1ccc(C(=O)N2CCCC2)cc1` ?
4.96
